Tested on: HRV16
Assay: HRV16 induced CPE in MRC5 cells
Assay type: cell-based
Run parameters: Human rhinovirus sp., HRV16; MRC5 cells, HRV-16
Attribute measured: IC50 (µM)
Respond numerically; units are µM and should not be typed.

Q. Record request: IC50 value, item Cc1ccc(-n2nc(C(C)(C)C)cc2NC(=O)Nc2ccc(Oc3ccnc(Nc4ccccc4)n3)c3ccccc23)cc1
A. 0.0171

* * *

Test system: TNFα
Assay: LPS-induced TNFα release in d-U937 cells
Type: cell-based
Run parameters: Homo sapiens, dU937, dU937 cells; relative to 10 μg/mL BIRB796; read-out: LPS Induced Release TNFα REC50 (dU937)
Attribute measured: pEC50
Give only the number. pEC50 is defined as minus log10 of concentration in molar units.

Q. Query the reported pEC50 for TNFα; item: COc1ccc(-n2nc(C(C)(C)C)cc2NC(=O)Nc2ccc(Oc3ccnc(Nc4ccc(O)cc4)n3)c3ccccc23)cc1
A. 8.13

Q. Recall the recorded pEC50 for Cc1ccc(-n2nc(C(C)(C)C)cc2NC(=O)Nc2ccc(Oc3ccnc(Nc4cc(C)ccc4C)n3)c3ccccc23)cc1 with TNFα and state it.
A. 7.82

Q. Param readout = pEC50; param system = TNFα; param query = Cc1ccc(-n2nc(C(C)(C)C)cc2NC(=O)Nc2ccc(Oc3ccnc(Nc4cccc(C)c4)n3)c3ccccc23)cc1 ; response: value
A. 8.70

Q. Lookup: pEC50 / TNFα / COc1ccc(-n2nc(C(C)(C)C)cc2NC(=O)Nc2ccc(Oc3ccnc(Nc4ccccc4)n3)c3ccccc23)cc1
A. 8.77

Q. Hello, I am looking for reported pEC50 with TNFα for Cc1ccc(-n2nc(C(C)(C)C)cc2NC(=O)Nc2ccc(Oc3ccnc(Nc4ccccc4F)n3)c3ccccc23)cc1 . Could you help?
A. 8.51

Q. Request body: readout pEC50, system TNFα, query Cc1ccc(-n2nc(C(C)(C)C)cc2NC(=O)Nc2ccc(Oc3ccnc(Nc4ccc(O)cc4Cl)n3)c3ccccc23)cc1 . Return the value.
A. 7.80

* * *

Provide the recorded pEC50 for the entries that follow.
System: TNFα
Assay: LPS-induced TNFα release in d-U937 cells
Assay type: cell-based
Run parameters: Homo sapiens, dU937, dU937 cells; relative to 10 μg/mL BIRB796; read-out: LPS Induced Release TNFα REC50 (dU937)
Protocol: U937 cells, a human monocytic cell line, were differentiated into macrophage-type cells by incubation with PMA (100 ng/mL) for 48 to 72 hr. […] The relative 50% effective concentration (REC50) was determined from the resultant concentration-response curve. The inhibition of IL-8 production was calculated at each concentration of test compound by comparison with vehicle control.
The read-out pEC50 is expressed as -log10 of concentration in moles per litre.

Q. Endpoint output: pEC50 of COc1ccc(Nc2nccc(Oc3ccc(NC(=O)Nc4cc(C(C)(C)C)nn4-c4ccc(C)cc4)c4ccccc34)n2)cc1Cl [Example 28] . Value?
A. 7.85

Q. State the recorded pEC50 for this entry: Cc1ccc(-n2nc(C(C)(C)C)cc2NC(=O)Nc2ccc(Oc3ccnc(Nc4ccc(F)cc4)n3)c3ccccc23)cc1 [Example 23]
A. 8.10

Q. Reported pEC50 for Cc1ccc(-n2nc(C(C)(C)C)cc2NC(=O)Nc2ccc(Oc3ccnc(Nc4ccccc4C(C)C)n3)c3ccccc23)cc1 [Example 20] : what is it?
A. 7.74

Q. Recorded pEC50 for COCC(=O)Nc1cc(Oc2ccc(NC(=O)Nc3cc(C(C)(C)C)nn3-c3ccc(C)cc3)c3ccccc23)ccn1 [Reference Compound, reference compound] , please?
A. 9.89

Q. Query (molecule): Cc1ccc(-n2nc(C(C)(C)C)cc2NC(=O)Nc2ccc(Oc3ccnc(Nc4ccc(Cl)cc4C)n3)c3ccccc23)cc1 [Example 18] ; field requested: pEC50
A. 7.89
